Taken from ChEMBL document CHEMBL5532661.

target: Glucagon-like peptide 1 receptor (Homo sapiens); test: Agonist activity at human GLP-1 receptor expressed in HEK293 cells assessed as cAMP level by measuring relative percent (GLP-1 EC50/compound EC50) measured after 60 mins by HTRF based assay relative to GLP-1; type: functional, cell-based
Sequence (P43220 whole entry): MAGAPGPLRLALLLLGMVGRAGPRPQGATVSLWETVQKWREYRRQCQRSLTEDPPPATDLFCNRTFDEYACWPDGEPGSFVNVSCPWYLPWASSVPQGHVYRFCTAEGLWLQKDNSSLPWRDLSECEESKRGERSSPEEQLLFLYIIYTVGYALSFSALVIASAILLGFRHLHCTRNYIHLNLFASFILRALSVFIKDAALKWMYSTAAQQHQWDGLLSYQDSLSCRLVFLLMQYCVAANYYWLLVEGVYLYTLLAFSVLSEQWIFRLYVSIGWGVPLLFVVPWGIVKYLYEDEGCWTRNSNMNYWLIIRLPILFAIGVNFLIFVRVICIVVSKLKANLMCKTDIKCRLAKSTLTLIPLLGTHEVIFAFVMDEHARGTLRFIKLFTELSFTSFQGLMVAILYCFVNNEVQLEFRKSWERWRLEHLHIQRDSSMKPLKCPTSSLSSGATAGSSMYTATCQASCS
OBSERVATION TYPE: Activity (%)

Use the examples below as a reference point.
substance=H-HSQGTFTSDMSSYLDSRRAQEFVDWLIKGR-NH2 observation_type=Activity numeric_value=6
substance=H-HSQGTFTSDMSSYLDSRRAQDFVDWLMNT-NH2 observation_type=Activity numeric_value=6
substance=H-HSQGTFTSDMSSYLDSRRAQDFVDWLIKGRPSSGAPPPS-NH2 observation_type=Activity numeric_value=25
substance=H-HSQGTFTSDMSKYLDSRRAQDFVDWLIKG-NH2 observation_type=Activity numeric_value=7

[1] H-HSQGTFTSDMSSYLDSRRAQDFVDWLIKGR-NH2
[2] H-HSQGTFTSDMSKYLDSRRAQDFVDWLIKGR-NH2
input: Pick one: 1 or 2 . Which one has the lower reported Activity? Write down the label attached to your selection.
output: 1
